The entries below come with measured TGI values attached.
Test system: MDA-MB-468 breast
Test: NCI tumour cell line growth inhibition, 48 h
Starred links: 1 amine or outer side, 2 acyl side, 3 side chain; linkers in the order of their positions; H or OH if unused. Non-standard residues stand in square brackets, D forms with d. Residues, ends and D or L forms follow the SMILES beside them. *: point of attachment. X14 = C/C=C/CC(C)C(O)[C@H](N[*:1])C(=O)[*:2]; Decanoyl = CCCCCCCCCC(=O)*; Leu(ol) = CC(C)C[C@H](N)CO; Iva = CC[C@](C)(N)C(=O)O; Aib = CC(C)(N)C(=O)O
# value in µM; strip the unit string

- O=C(NS(=O)(=O)c1ccc(NC[C@H]2COCCO2)c([N+](=O)[O-])c1)c1ccc(N2CCN(CC3=C(c4ccc(Cl)cc4)CC4(CCC4)CC3)CC2)cc1Oc1cnc2[nH]ccc2c1: 4.35
- CCC(C)CC(C)C(=O)c1c(O)ccn(O)c1=O (stereo unspecified): 9.47
- C/C=C/CC(C)C(O)[C@H](NC(=O)[C@@H]1CCCN1C(=O)C(C)(C)NC(=O)CCCCCCCCC)C(=O)N[C@@](C)(CC)C(=O)N[C@@H](CCC(N)=O)C(=O)N[C@H](CCC(N)=O)C(=O)NC(C)(C)C(=O)N[C@@](C)(CC)C(=O)N[C@@H](CCC(N)=O)C(=O)N[C@H](CC(C)C)C(=O)N[C@H](CO)CC(C)C (stereo partly drawn) (Decanoyl-[Aib]P[X14][Iva]Q[dQ][Aib][Iva]Q[dL][Leu(ol)]): 0.26

With those in mind, consider the next molecule.
Query: Annotate the molecule CCN1C(=O)N(CC)C2C1NC(=S)N2/N=C/C=C/c1ccccc1OC (stereo unspecified) with its measured TGI.
Result: 38.9
